These entries and their values trace back to paper PMC11297040.

Molecular target: OaVMAT2WT (Ovis aries, UniProt A0A6P7DBQ8)
Sequence (A0A6P7DBQ8 1-517): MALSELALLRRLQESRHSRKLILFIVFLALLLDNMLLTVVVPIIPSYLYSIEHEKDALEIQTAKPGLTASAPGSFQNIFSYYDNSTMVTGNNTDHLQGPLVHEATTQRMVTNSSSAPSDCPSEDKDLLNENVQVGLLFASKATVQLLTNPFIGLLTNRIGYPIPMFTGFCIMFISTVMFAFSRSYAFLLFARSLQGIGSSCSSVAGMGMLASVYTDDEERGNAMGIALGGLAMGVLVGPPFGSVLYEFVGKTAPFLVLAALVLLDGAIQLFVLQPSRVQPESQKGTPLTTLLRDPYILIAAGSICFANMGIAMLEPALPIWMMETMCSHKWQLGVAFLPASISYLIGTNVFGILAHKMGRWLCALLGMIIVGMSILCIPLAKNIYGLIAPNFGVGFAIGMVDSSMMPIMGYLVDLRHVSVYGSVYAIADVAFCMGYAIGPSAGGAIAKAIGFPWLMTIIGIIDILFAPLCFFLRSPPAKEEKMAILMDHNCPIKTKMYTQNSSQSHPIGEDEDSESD
Measured Kd, listed per entry for reference.

compound-structure-string	Kd [nM]
NCCc1c[nH]c2ccc(O)cc12	210
COC(=O)[C@H]1[C@H]2C[C@@H]3c4[nH]c5cc(OC)ccc5c4CCN3C[C@H]2C[C@@H](OC(=O)c2cc(OC)c(OC)c(OC)c2)[C@@H]1OC	16

###

Molecular target: HsVMAT2 (Homo sapiens, UniProt Q05940, V232A)
Construct: full-length; N-terminal His10-BRIL-TEV and C-terminal TEV-BRIL-His10 tags, released by TEV cleavage (called His-tagged in MST); Pichia pastoris GS115; DDM
Sequence (Q05940 whole entry V232A): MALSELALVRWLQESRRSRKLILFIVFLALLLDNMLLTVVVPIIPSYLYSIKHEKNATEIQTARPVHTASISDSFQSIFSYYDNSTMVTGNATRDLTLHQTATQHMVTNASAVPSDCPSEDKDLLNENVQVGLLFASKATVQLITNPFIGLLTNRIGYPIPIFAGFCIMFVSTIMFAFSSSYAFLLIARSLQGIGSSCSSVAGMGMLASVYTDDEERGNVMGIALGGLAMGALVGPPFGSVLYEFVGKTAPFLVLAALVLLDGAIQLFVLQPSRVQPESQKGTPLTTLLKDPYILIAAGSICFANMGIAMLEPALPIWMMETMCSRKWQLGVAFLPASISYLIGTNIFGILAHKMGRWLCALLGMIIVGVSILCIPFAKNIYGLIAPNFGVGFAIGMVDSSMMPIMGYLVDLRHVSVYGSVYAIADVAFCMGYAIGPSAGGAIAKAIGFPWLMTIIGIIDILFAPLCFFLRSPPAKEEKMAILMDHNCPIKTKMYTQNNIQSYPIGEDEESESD
Test: microscale thermophoresis (RED-Tris-NTA labelled protein)
pKd: −log10 of the molar value.
assay-metric: pKd

compound-structure-string	assay-metric	endpoint-value
NCCc1c[nH]c2ccc(O)cc12	pKd	5.41

###

pKd: −log10 of the molar value.
Quick record of pKd values for UniProt A0A1L8FIB7.
Sequence (A0A1L8FIB7 1-514): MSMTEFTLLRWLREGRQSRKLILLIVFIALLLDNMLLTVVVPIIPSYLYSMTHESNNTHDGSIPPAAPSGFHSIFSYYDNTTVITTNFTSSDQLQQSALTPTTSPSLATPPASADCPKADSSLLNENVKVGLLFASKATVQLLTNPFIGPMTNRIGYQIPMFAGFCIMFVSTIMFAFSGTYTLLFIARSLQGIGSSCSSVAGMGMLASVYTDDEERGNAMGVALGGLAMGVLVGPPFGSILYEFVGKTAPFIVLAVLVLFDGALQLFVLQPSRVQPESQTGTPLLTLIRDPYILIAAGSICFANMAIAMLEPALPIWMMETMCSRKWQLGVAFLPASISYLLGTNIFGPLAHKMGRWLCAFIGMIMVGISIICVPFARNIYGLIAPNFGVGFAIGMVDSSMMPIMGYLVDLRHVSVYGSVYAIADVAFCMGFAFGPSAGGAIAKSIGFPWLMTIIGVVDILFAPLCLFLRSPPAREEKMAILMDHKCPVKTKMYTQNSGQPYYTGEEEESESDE

molecule	pKd
COC(=O)[C@H]1[C@H]2C[C@@H]3c4[nH]c5cc(OC)ccc5c4CCN3C[C@H]2C[C@@H](OC(=O)c2cc(OC)c(OC)c(OC)c2)[C@@H]1OC [reserpine]	7.77
NCCc1c[nH]c2ccc(O)cc12 [serotonin]	6.37

###

Molecular target: HsVMAT2 (Homo sapiens, UniProt Q05940, D399A)
Construct: gene SLC18A2; full-length; N-terminal His10-BRIL-TEV and C-terminal TEV-BRIL-His10 tags, released by TEV cleavage (called His-tagged in MST); Pichia pastoris GS115; DDM
Sequence (Q05940 whole entry D399A): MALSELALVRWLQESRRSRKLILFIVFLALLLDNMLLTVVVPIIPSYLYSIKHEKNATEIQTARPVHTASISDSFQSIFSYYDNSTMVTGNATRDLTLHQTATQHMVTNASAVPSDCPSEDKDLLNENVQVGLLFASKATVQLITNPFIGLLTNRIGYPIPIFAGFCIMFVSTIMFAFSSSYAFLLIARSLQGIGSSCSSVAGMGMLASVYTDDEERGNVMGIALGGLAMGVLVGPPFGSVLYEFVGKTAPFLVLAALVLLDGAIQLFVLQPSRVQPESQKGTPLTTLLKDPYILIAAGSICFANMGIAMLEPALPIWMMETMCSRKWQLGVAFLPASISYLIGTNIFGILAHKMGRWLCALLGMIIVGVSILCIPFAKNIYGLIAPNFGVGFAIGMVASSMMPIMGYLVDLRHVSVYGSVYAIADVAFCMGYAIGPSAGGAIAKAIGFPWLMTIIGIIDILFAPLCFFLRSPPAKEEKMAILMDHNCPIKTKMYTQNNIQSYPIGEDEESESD
Test: microscale thermophoresis (RED-Tris-NTA labelled protein)
Format: binding
pKd: −log10 of the molar value.

compound-structure-string	target-system	pKd
NCCc1c[nH]c2ccc(O)cc12	HsVMAT2 (Homo sapiens, UniProt Q05940, D399A)	4.66

###

Molecular target: HsVMAT2 (Homo sapiens, UniProt Q05940, L228A)
Construct: full-length; N-terminal His10-BRIL-TEV and C-terminal TEV-BRIL-His10 tags, released by TEV cleavage (called His-tagged in MST); Pichia pastoris GS115; DDM
Sequence (Q05940 whole entry L228A): as the sequence (Q05940 whole entry D399A) above, with L228A, A399D counted along it
Assay: microscale thermophoresis (RED-Tris-NTA labelled protein)
pKd: −log10 of the molar value.

compound-structure-string	target-system	pKd
NCCc1c[nH]c2ccc(O)cc12	HsVMAT2 (Homo sapiens, UniProt Q05940, L228A)	5.50

###

Target: HsVMAT2 (Homo sapiens, UniProt Q05940, Y341A)
Construct: full-length; N-terminal His10-BRIL-TEV and C-terminal TEV-BRIL-His10 tags, released by TEV cleavage (called His-tagged in MST); Pichia pastoris GS115; DDM
Assay: microscale thermophoresis (RED-Tris-NTA labelled protein)
assay-metric: Kd (µM)

compound-structure-string	endpoint-value
NCCc1c[nH]c2ccc(O)cc12	0.81
